# Species on record: Danio rerio
# protocol-text: Induction of paralysis in AB/TU zebra fish at 100 uM treated at 7 hpf and measured after 72 hrs
# Assay type: functional, organism-based
Activity calls are given as the source filed them. The rule behind the calls is not given here.
Classes to choose from: active, inactive

Incoming: Recorded call for COc1ccc(-c2cc3c(c(=O)o2)C[C@]2(O)[C@@]4(C)CCC(=O)C(C)(C)[C@]4(O)CC[C@@]2(C)O3)cc1 ?
Outgoing: inactive

Incoming: Recorded call for COc1ccc(-c2cc3c(c(=O)o2)C[C@]2(O)[C@@]4(C)[C@H](O)CC(=O)C(C)(C)[C@@]4(O)CC[C@@]2(C)O3)cc1 ?
Outgoing: inactive

Incoming: Recorded call for COc1ccc(-c2cc3c(c(=O)o2)C[C@]2(O)[C@@]4(C)[C@H](O)C[C@@H](O)C(C)(C)[C@]4(O)CC[C@@]2(C)O3)cc1 ?
Outgoing: inactive

Incoming: Recorded call for COc1ccc(-c2cc3c(c(=O)o2)C[C@]2(O)[C@@]4(C)CC[C@@H](O)C(C)(C)[C@]4(O)CC[C@@]2(C)O3)cc1 ?
Outgoing: inactive

Incoming: Recorded call for COc1ccc(-c2cc3c(c(=O)o2)C[C@H]2[C@@](C)(CC[C@@]4(O)C(C)(C)[C@@H](O)CC[C@]24C)O3)cc1 ?
Outgoing: inactive

Incoming: Recorded call for CC(C)NP(=O)(NC(C)C)OP(=O)(NC(C)C)NC(C)C [TETRAISOPROPYL PYROPHOSPHORAMIDE] ?
Outgoing: inactive

Incoming: Recorded call for CNC(=O)Oc1ccc2c(c1)[C@]1(C)CCN(C)[C@@H]1N2C ?
Outgoing: active

Incoming: Recorded call for COc1ccc(-c2cc3c(c(=O)o2)C[C@@H]2[C@@]4(C)CC[C@H](O)C(C)(C)[C@@H]4CC[C@@]2(C)O3)cc1 ?
Outgoing: inactive
